Where these numbers come from: the supplement of paper PMC10126150

Test system: ATP;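 also: ATP exposure 15 min at 22 °C before imaging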
PROCEDURE DETAILS: switch fluorescence ratio, 500 uM ATP over buffer (Cy3 cluster intensity, sum of 5 cycles each) (fold (ratio)); higher = stronger signal-on switching upon ATP binding; sequences stand for … in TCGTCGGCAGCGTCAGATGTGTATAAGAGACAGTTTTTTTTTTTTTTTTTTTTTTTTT…TC
TEST CONDITIONS: aptamer strand: ATP DNA aptamer (quencher-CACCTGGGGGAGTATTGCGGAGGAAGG + anchor), 100 nM annealed; ATP concentration: 500 uM
Catalogue of sequences with associated switch fluorescence ratio
Please respond with just the number, no unit label.

Here's what some known entries look like.
TCTTAGGCGC = 1.03
TTCCAGGGTG = 1.71
CGATAGGTAC = 1.22
GATCTGAACT = 1
TGGGATTTTG = 1.01

Query string: What is its switch fluorescence ratio for ATP? Entry: GCGTTTAGAT
Result string: 1.02

Query string: What is its switch fluorescence ratio for ATP? Entry: GCGCGATGGA
Result string: 1.03

###

Test system: ATP;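 also: ATP exposure 15 min at 22 °C before imaging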
PROCEDURE DETAILS: switch fluorescence ratio, 500 uM ATP over buffer (Cy3 cluster intensity, sum of 5 cycles each) (fold (ratio)); higher = stronger signal-on switching upon ATP binding; sequences stand for … in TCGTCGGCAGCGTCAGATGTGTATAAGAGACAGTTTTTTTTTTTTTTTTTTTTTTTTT…TC
TEST CONDITIONS: aptamer strand: ATP DNA aptamer (quencher-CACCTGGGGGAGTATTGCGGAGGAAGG + anchor), 100 nM annealed; ATP concentration: 500 uM
MEASURED PARAMETER: switch fluorescence ratio
Please respond with just the number, no unit label.

Here's what some known entries look like.
CATGGTTCGT = 0.975
TTAGAGTATA = 1
AATTAGCTGT = 0.974
TAATTTCTTG = 1.01

Query string: Fill in: switch fluorescence ratio of CGCTTATAGG is ___
Result string: 1.03

Query string: Fill in: switch fluorescence ratio of GGGGATTCT is ___
Result string: 0.994

Query string: Fill in: switch fluorescence ratio of CGTGGGGTTT is ___
Result string: 0.989

Query string: Fill in: switch fluorescence ratio of TTTTGACTTA is ___
Result string: 1.04

Query string: Fill in: switch fluorescence ratio of TCAAAAAGGA is ___
Result string: 1.01

Query string: Fill in: switch fluorescence ratio of ATTGATGGGC is ___
Result string: 0.964

Query string: Fill in: switch fluorescence ratio of ATGATGGTTA is ___
Result string: 0.998

Query string: Fill in: switch fluorescence ratio of TAACCTCGCG is ___
Result string: 1.04

Query string: Fill in: switch fluorescence ratio of GCGTGTTGTG is ___
Result string: 1.02

###

System: ATP;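 also: ATP exposure 15 min at 22 °C before imaging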
PROCEDURE DETAILS: switch fluorescence ratio, 500 uM ATP over buffer (Cy3 cluster intensity, sum of 5 cycles each) (fold (ratio)); higher = stronger signal-on switching upon ATP binding; sequences stand for … in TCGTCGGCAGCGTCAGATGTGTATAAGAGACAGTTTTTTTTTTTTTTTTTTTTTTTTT…TC
TEST CONDITIONS: aptamer strand: ATP DNA aptamer (quencher-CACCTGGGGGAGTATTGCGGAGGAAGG + anchor), 100 nM annealed; ATP concentration: 500 uM
Parameter threshold = 1. Response is fulfilled when switch fluorescence ratio meets or exceeds it, else not fulfilled.

Query string: Can TCAAACTGGT be said to have switch fluorescence ratio at or above 1?
Result string: fulfilled

Query string: Can GCCCGGGGGG be said to have switch fluorescence ratio at or above 1?
Result string: fulfilled

Query string: Can ATGAAGGGTG be said to have switch fluorescence ratio at or above 1?
Result string: fulfilled

Query string: Can TTTTCTGTCC be said to have switch fluorescence ratio at or above 1?
Result string: fulfilled

Query string: Can TTTATGTGGG be said to have switch fluorescence ratio at or above 1?
Result string: fulfilled

###

Catalogue of sequences with associated switch fluorescence ratio
System: ATP;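 also: ATP exposure 15 min at 22 °C before imaging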
PROCEDURE DETAILS: switch fluorescence ratio, 500 uM ATP over buffer (Cy3 cluster intensity, sum of 5 cycles each) (fold (ratio)); higher = stronger signal-on switching upon ATP binding; sequences stand for … in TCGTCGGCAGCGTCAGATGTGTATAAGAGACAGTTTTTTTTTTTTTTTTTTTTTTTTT…TC
TEST CONDITIONS: aptamer strand: ATP DNA aptamer (quencher-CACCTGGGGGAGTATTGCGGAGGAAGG + anchor), 100 nM annealed; ATP concentration: 500 uM
Please respond with just the number, no unit label.

Here's what some known entries look like.
GCGCCTTGTG = 0.988
ATATTCGATT = 0.999
CTAATTGAGT = 1.01

Query string: What is its switch fluorescence ratio for ATP? Entry: AAAGACCGTG
Result string: 1.02

Query string: What is its switch fluorescence ratio for ATP? Entry: AGTTGGTATT
Result string: 0.998

Query string: What is its switch fluorescence ratio for ATP? Entry: ATTCGGGATG
Result string: 0.979

Query string: What is its switch fluorescence ratio for ATP? Entry: TCTTTCATAT
Result string: 0.939

Query string: What is its switch fluorescence ratio for ATP? Entry: ATTAGGGTTA
Result string: 0.993

Query string: What is its switch fluorescence ratio for ATP? Entry: TAATGGGTTT
Result string: 0.999

Query string: What is its switch fluorescence ratio for ATP? Entry: CCTATTCGTT
Result string: 1.01

Query string: What is its switch fluorescence ratio for ATP? Entry: TGTTAATCTG
Result string: 0.994

Query string: What is its switch fluorescence ratio for ATP? Entry: TACACCGTCA
Result string: 1.08

Query string: What is its switch fluorescence ratio for ATP? Entry: CGTTGTCTAG
Result string: 0.971

###

System: ATP;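 also: ATP exposure 15 min at 22 °C before imaging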
PROCEDURE DETAILS: switch fluorescence ratio, 500 uM ATP over buffer (Cy3 cluster intensity, sum of 5 cycles each) (fold (ratio)); higher = stronger signal-on switching upon ATP binding; sequences stand for … in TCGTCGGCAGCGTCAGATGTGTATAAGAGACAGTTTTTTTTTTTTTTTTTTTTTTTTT…TC
TEST CONDITIONS: aptamer strand: ATP DNA aptamer (quencher-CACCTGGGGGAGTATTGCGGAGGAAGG + anchor), 100 nM annealed; ATP concentration: 500 uM
MEASURED PARAMETER: switch fluorescence ratio
Please respond with just the number, no unit label.

Here's what some known entries look like.
ACAGGATGGT = 0.998
TTGGGCGATT = 1.06
TAGAGGGGGG = 0.985

Turning to the following sequence.
Query string: Fill in: switch fluorescence ratio of GAGGGACAAT is ___
Result string: 0.988

###

Tested on: ATP;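 also: ATP exposure 15 min at 22 °C before imaging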
PROCEDURE DETAILS: switch fluorescence ratio, 500 uM ATP over buffer (Cy3 cluster intensity, sum of 5 cycles each) (fold (ratio)); higher = stronger signal-on switching upon ATP binding; sequences stand for … in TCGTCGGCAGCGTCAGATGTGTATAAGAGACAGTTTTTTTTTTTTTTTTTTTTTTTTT…TC
TEST CONDITIONS: aptamer strand: ATP DNA aptamer (quencher-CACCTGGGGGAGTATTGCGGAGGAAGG + anchor), 100 nM annealed; ATP concentration: 500 uM
MEASURED PARAMETER: switch fluorescence ratio
Please respond with just the number, no unit label.

TAACGTGGTG = 1.05
CCGATTGGTA = 1.03
TTTGTTGGAA = 0.99

Query string: What is its switch fluorescence ratio for ATP? Entry: CGCGCGGGCT
Result string: 0.998

Query string: What is its switch fluorescence ratio for ATP? Entry: ATTGCAGTTT
Result string: 0.986

Query string: What is its switch fluorescence ratio for ATP? Entry: TGGGTTCGGC
Result string: 0.981

Query string: What is its switch fluorescence ratio for ATP? Entry: AGGGTGGTTT
Result string: 0.997

Query string: What is its switch fluorescence ratio for ATP? Entry: AGAAGGGTAT
Result string: 0.976

###

Tested on: ATP;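 also: ATP exposure 15 min at 22 °C before imaging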
PROCEDURE DETAILS: switch fluorescence ratio, 500 uM ATP over buffer (Cy3 cluster intensity, sum of 5 cycles each) (fold (ratio)); higher = stronger signal-on switching upon ATP binding; sequences stand for … in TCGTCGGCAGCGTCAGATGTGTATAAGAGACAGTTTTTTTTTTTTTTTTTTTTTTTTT…TC
TEST CONDITIONS: aptamer strand: ATP DNA aptamer (quencher-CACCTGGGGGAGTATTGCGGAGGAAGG + anchor), 100 nM annealed; ATP concentration: 500 uM
Catalogue of sequences with associated switch fluorescence ratio
Please respond with just the number, no unit label.

TACTGTATTG = 1.03
ACTTCTAACT = 1.07
GGTCCTGTTG = 1.01
CGACCTTTTC = 1.4
AGAGGATTTT = 1

Query string: Fill in: switch fluorescence ratio of TAATGAGTCA is ___
Result string: 1

Query string: Fill in: switch fluorescence ratio of GGGCCCGCTG is ___
Result string: 0.987

Query string: Fill in: switch fluorescence ratio of AAAAGAACGC is ___
Result string: 1.05

Query string: Fill in: switch fluorescence ratio of TCAGGGACGA is ___
Result string: 1.02

Query string: Fill in: switch fluorescence ratio of CGCATTTTGT is ___
Result string: 1.06

Query string: Fill in: switch fluorescence ratio of TAAAGCGTAG is ___
Result string: 0.998

Query string: Fill in: switch fluorescence ratio of AATGCGGGGT is ___
Result string: 1.13

Query string: Fill in: switch fluorescence ratio of GAATTCGATC is ___
Result string: 1.02

Query string: Fill in: switch fluorescence ratio of AATACGGTAT is ___
Result string: 1.05

Query string: Fill in: switch fluorescence ratio of ATGGTAAGT is ___
Result string: 0.982
